Where do these numbers come from? They come from patent US20240158446A1.

# maps each entry to its pKd
Experimental target: GDP-bound KRAS wild-type protein (Homo sapiens, UniProt P01116)
Sequence (P01116 whole entry): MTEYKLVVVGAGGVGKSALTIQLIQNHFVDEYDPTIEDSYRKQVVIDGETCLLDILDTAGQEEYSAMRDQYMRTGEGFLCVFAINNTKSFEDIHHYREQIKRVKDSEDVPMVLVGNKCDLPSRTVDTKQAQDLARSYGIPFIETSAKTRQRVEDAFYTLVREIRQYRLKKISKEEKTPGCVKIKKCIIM
Experiment description: Binding to KRAS by surface plasmon resonance (SPR), Single Cycle Kinetics
Condition parameters: SPR, Single Cycle Kinetics, GDP-bound KRAS wild-type protein; read-out: KRAS KD
Lab note — pKd values are minus log10 of concentrations in M.

# example entries with known answers
INSERT INTO measurements (item_smiles, property_measured, quantitative_result) VALUES
  ('CCO[C@@H]1C[C@H]2C(=O)NC3(CC(C)(C)C3)C(=O)N(C)[C@@H](C3CCCC3)C(=O)N(C)[C@H](C(=O)N3CCOCC3)CC(=O)N(C)[C@@H](COC)C(=O)N[C@@H]([C@@H](C)CC)C(=O)N(C)CC(=O)N(C)[C@H]3CCCCCN(C3=O)[C@@H](Cc3ccc(C(F)(F)F)cc3)C(=O)N(C)CC(=O)N[C@@H](CCc3cc(F)c(C(F)(F)F)c(F)c3)C(=O)N2C1', 'pKd', 8.92),
  ('C=CCCCC[C@H]1C(=O)N[C@@H]([C@@H](C)CC)C(=O)N(C)CC(=O)N(C)[C@H]2CCCCN(C2=O)[C@@H](Cc2ccc(C(F)(F)F)cc2)C(=O)N(C)CC(=O)N[C@@H](CCc2cc(F)c(C(F)(F)F)c(F)c2)C(=O)N2C[C@H](OCC)C[C@H]2C(=O)N[C@](C)(CC=C)C(=O)N(C)[C@@H](C2CCCC2)C(=O)N(C)[C@H](C(=O)N2CCOCC2)CC(=O)N1C', 'pKd', 9.68);

Okay, now this compound:
// query Entry under review: CCOC[C@H]1C(=O)N[C@@H]([C@@H](C)OCC)C(=O)N(C)CC(=O)N(C)[C@H]2C/C=C\CCN(C2=O)[C@@H](Cc2ccc(C)cc2)C(=O)N(C)CC(=O)N[C@@H](CCc2cc(F)c(C(F)(F)F)c(F)c2)C(=O)N2C[C@@H](C)C[C@H]2C(=O)NC2(CC(C)(C)C2)C(=O)N(C)[C@@H](C2CCCC2)C(=O)N(C)[C@H](C(=O)N(C)CC)CC(=O)N1C . Reported pKd?
// result 9.34

====

Experimental target: GDP-bound KRAS wild-type protein (Homo sapiens, UniProt P01116)
Experiment description: Binding to KRAS by surface plasmon resonance (SPR), Single Cycle Kinetics
Condition parameters: SPR Single Cycle Kinetics, GDP-bound KRAS wild-type protein, 1:1 binding model; read-out: KRAS KD
Where a SMILES comes first, the peptide text is derived from it. Bridges are numbered along the chain shown (N, C = ends). [ ]: non-standard residue; d: D form. The star is where a group is joined. hPhe(3,5-F2-4-CF3) = N[C@@H](CCc1cc(F)c(C(F)(F)F)c(F)c1)C(=O)O; hPhe(3-Cl-4-CF3) = N[C@@H](CCc1ccc(C(F)(F)F)c(Cl)c1)C(=O)O; NPrPhe(4-CF3) = CCCN[C@@H](Cc1ccc(C(F)(F)F)cc1)C(=O)O; hPhe(3,4-Cl2) = N[C@@H](CCc1ccc(Cl)c(Cl)c1)C(=O)O; NEtPhe(4-Me) = CCN[C@@H](Cc1ccc(C)cc1)C(=O)O; NMeGly(cPent) = CN[C@H](C(=O)O)C1CCCC1; NMeD = CN[C@@H](CC(=O)O)C(=O)O; NMeL = CN[C@@H](CC(C)C)C(=O)O; αMeS = C[C@](N)(CO)C(=O)O; Morpholide = C1CN(*)CCO1; NMeA = CN[C@@H](C)C(=O)O; Ac5c = NC1(C(=O)O)CCCC1; Aze = O=C(O)[C@@H]1CCN1; NEtG = CCNCC(=O)O; Sar = CNCC(=O)O
Binarize Kd at 0.3 nM; below is 1.0, at or above is 0.0.

Answered examples (6):
INSERT INTO measurements (compound, class_name) VALUES
  ('CC[C@H](C)[C@@H]1NC(=O)[C@H](CC(C)C)N(C)C(=O)C[C@@H](C(=O)N2CCOCC2)N(C)C(=O)[C@H](C2CCCC2)N(C)C(=O)C2(CCCC2)NC(=O)[C@@H]2CCCN2C(=O)[C@H](CCc2ccc(C(F)(F)F)c(Cl)c2)NC(=O)CN(CC)C(=O)[C@H](Cc2ccc(C)cc2)N(CC)C(=O)CN(C)C(=O)CN(C)C1=O [PP0028] ([NMeL]I[Sar][Sar][NEtPhe(4-Me)][NEtG][hPhe(3-Cl-4-CF3)]P[Ac5c][NMeGly(cPent)][NMeD]-Morpholide; lactam N-11)', 0.0),
  ('CCCN1C(=O)[C@@H]2CCN2C(=O)[C@H](C)N(C)C(=O)[C@H]([C@@H](C)CC)NC(=O)[C@H](CC(C)C)N(C)C(=O)C[C@@H](C(=O)N2CCOCC2)N(C)C(=O)[C@H](C2CCCC2)N(C)C(=O)C2(CCCC2)NC(=O)[C@@H]2CCCN2C(=O)[C@H](CCc2ccc(Cl)c(Cl)c2)NC(=O)CN(C)C(=O)[C@@H]1Cc1ccc(C(F)(F)F)cc1 [PP0227] ([NMeL]I[NMeA][Aze][NPrPhe(4-CF3)][Sar][hPhe(3,4-Cl2)]P[Ac5c][NMeGly(cPent)][NMeD]-Morpholide; lactam N-11)', 1.0),
  ('CCO[C@@H]1C[C@H]2C(=O)NC3(CCC3)C(=O)N(C)[C@@H](C3CCCC3)C(=O)N(CCc3ccccc3)[C@H](C(=O)N(C)C)CC(=O)N(C)[C@@H](CC)C(=O)N[C@@H]([C@@H](C)CC)C(=O)N(C)CC(=O)N(C)[C@H]3CCCCN(C3=O)[C@@H](Cc3ccc(C(F)(F)F)cc3)C(=O)N(C)CC(=O)N[C@@H](CCc3cc(F)c(C(F)(F)F)c(F)c3)C(=O)N2C1', 0.0),
  ('CC[C@H](C)[C@@H]1NC(=O)[C@H](COC)N(C)C(=O)C[C@@H](C(=O)N(C)C)N(C)C(=O)[C@H](C2CCCC2)N(C)C(=O)C2(CC(C)(C)C2)NC(=O)[C@@H]2C[C@@H](OC3CCC3)CN2C(=O)[C@H](CCc2cc(F)c(C(F)(F)F)c(F)c2)NC(=O)CN(C)C(=O)[C@H](CC2CCC(F)(F)CC2)N2CC/C=C\C[C@@H](C2=O)N(C)C(=O)CN(C2CC2)C1=O', 0.0),
  ('CCC[C@H]1C(=O)N[C@@H]([C@@H](C)CC)C(=O)N(C2CC2)CC(=O)N(C)[C@H]2C/C=C\CCN(C2=O)[C@@H](Cc2ccc(C)cc2)C(=O)N(C)CC(=O)N[C@@H](CCc2ccc(Cl)c(Cl)c2)C(=O)N2C[C@H](OC(C)C)C[C@H]2C(=O)NC2(CC(C)(C)C2)C(=O)N(C)[C@@H](C2CCCC2)C(=O)N(C)[C@H](C(=O)N(C)C)CC(=O)N1C', 0.0),
  ('CCO[C@@H]1C[C@H]2C(=O)NC3(CC(C)(C)C3)C(=O)N(C)[C@@H](C3CCCC3)C(=O)N(C)[C@H](C(=O)N(C)CC)CC(=O)N(C)[C@@H](CC(C)C)C(=O)N[C@@H]([C@@H](C)CC)C(=O)N(C)CC(=O)N(C)[C@H]3C/C=C\CCN(C3=O)[C@@H](Cc3ccc(C(F)F)cc3)C(=O)N(C)CC(=O)N[C@@H](CCc3ccc(C(F)(F)F)c(Cl)c3)C(=O)N2C1', 1.0);

// query Dear colleague, could you confirm whether Kd of CCC[C@H]1C(=O)N[C@@H]([C@@H](C)CC)C(=O)N(C2CC2)CC(=O)N(C)[C@H]2C/C=C\CCN(C2=O)[C@@H](Cc2ccc(C(F)(F)F)cc2)C(=O)N(C)CC(=O)N[C@@H](CCc2ccc(Cl)c(Cl)c2)C(=O)N2C[C@H](OCC)C[C@H]2C(=O)NC2(CC(C)(C)C2)C(=O)N(C)[C@@H](CC2CCC2)C(=O)N(C)[C@H](C(=O)N(C)C)CC(=O)N1C falls below 0.3 nM? Thanks.
// result 0.0

// query Please state whether Kd is below 0.3 nM for CCO[C@@H]1C[C@H]2C(=O)NC3(CCC3)C(=O)N(C)[C@@H](C3CCCC3)C(=O)N(C)[C@H](C(=O)N3CCOCC3)CC(=O)N(C)[C@@H](C)C(=O)N[C@@H]([C@@H](C)CC)C(=O)N(C)CC(=O)N(C)[C@H]3CCCCN(C3=O)[C@@H](Cc3ccc(C(F)(F)F)cc3)C(=O)N(C)CC(=O)N[C@@H](CCc3cc(F)c(C(F)(F)F)c(F)c3)C(=O)N2C1
// result 1.0

// query Criterion: Kd strictly below 0.3 nM. Is it met by CCCN1C(=O)[C@@H]2CCN2C(=O)CN(C)C(=O)[C@H]([C@@H](C)CC)NC(=O)[C@H](CC(C)C)N(C)C(=O)C[C@@H](C(=O)N2CCOCC2)N(C)C(=O)[C@H](C2CCCC2)N(C)C(=O)[C@](C)(COC)NC(=O)[C@@H]2CCCN2C(=O)[C@H](CCc2cc(F)c(C(F)(F)F)c(F)c2)NC(=O)CN(C)C(=O)[C@@H]1Cc1ccc(C(F)(F)F)cc1 [PP0798] ([NMeL]I[Sar][Aze][NPrPhe(4-CF3)][Sar][hPhe(3,5-F2-4-CF3)]P[αMeS](Me)[NMeGly(cPent)][NMeD]-Morpholide; lactam N-11) ?
// result 0.0

// query Regarding CCO[C@@H]1C[C@H]2C(=O)NC3(CCC3)C(=O)N(C)[C@@H](C3CCCC3)C(=O)N(C)[C@H](C(=O)N(C)C)CC(=O)N(C)[C@@H](CC(C)(C)C)C(=O)N[C@@H]([C@@H](C)CC)C(=O)N(C)CC(=O)N(C)[C@H]3CCCCN(C3=O)[C@@H](Cc3ccc(C(F)(F)F)cc3)C(=O)N(C)CC(=O)N[C@@H](CCc3cc(F)c(C(F)(F)F)c(F)c3)C(=O)N2C1 , kindly confirm whether its Kd is beneath 0.3 nM.
// result 1.0
